Please respond with reported PsV neutralization IC90 for every item in the list.
ASSAYED SYSTEM: SARS-CoV-2 Alpha (B.1.1.7) spike protein (on reporter virus particles) (SARS-CoV-2, UniProt P0DTC2 14-1273)
ASSAY INFO: cell-based or functional assay
Answers are plain numbers, in µg/mL.

Worked set:
- BINDER: "A-18 (antibody, V domains shown) VH: EVQLLESGGGLVQPGGSLRLSCAASGFTFSRYWMHWVRQAPGKGLVWVSRINSDGSSTTYADSVKGRFTISRDNAKNTLYLQMNSLRAEDTAVYYCARELYYYDSRGAEEGEGWFDPWGQGTLVTVSS VL: QSVLTQPPSVSGAPGQRVTISCTGISSNIGAGYDVHWYQQLPGTAPKLLIYGNSNRPSGVPDRFSASKSGTSAPLAITGLQAEDEADYYCQSSDRSLSGSVFGTGTKLTVL"
  PsV neutralization IC90, µg/mL: 2.04
- BINDER: "A-16 (antibody, V domains shown) VH: QVQLVESGGGLVQPGRSLRLSCAASGFTFDDYAMHWVRQAPGKGLEWVSGISWNSGTIGYADSVKGRFIISRDNAKNSLYLQMNSLRGEDMALYYCGKDRKREDPSLGGMDVWGQGTTVTVSS VL: SYELTQPPSVSVAPGQTARITCGGNNIGSKSVHWYQQKPGQAPVLVVYDDTDRPSGIPERFSGSNSGNTATLTISRVEAGDEADYYCQVWDSSSDHYVFGTGTKLTVL"
  PsV neutralization IC90, µg/mL: 0.329
- BINDER: "A-9 (antibody, V domains shown) VH: EVQLVESGGGLVKPGRSLRLSCAASGFTFADYAMSWFRQAPGKGLEWVGFIRSKPYGGTTEYAASVKGRFTISRDDSKSIAYLQMNSLKTEDTAVYYCSRDPWYCSGGDCYAVTGSWFDPWGQGTLVTVSS VL: DIVLTQSPSSLSASVGDRVTITCQASQDIKKYLNWYQQKPGKAPKLLIYDVSNLETGVPSRFSGSGSGTDFTFTISSLQPEDVAIYYCQQYDNLPQTFGQGTKVDIK"
  PsV neutralization IC90, µg/mL: 0.118

Then this binder:
# PsV neutralization IC90 lookup, item A-6 (antibody, V domains shown) VH: QVQLVQSGGGVVQPGRSLRLSCAASGFTFSNFAMHWVRQAPGKGLEWVAVILYDGINKYYADSVKGRFTISRGNSKNTLSLQMNSLRAEDTAVYYCARAQNYYDRSGTLQLDAFDIWGQGTMVTVSS VL: DIVMTQSPSSLSASVGDRVTITCRASQGIRNDLGWYQQKPGKAPKLLIYAASSLQSGVPSRFSGSGSGTDFTLTISSLQPEDFATYYCLQDYNYPLTFGGGTKVEIK
1.21

Data provenance is patent US20260217797A1.
